// data source = PubChem BioAssay AID256

Tested on: CD2F1 mice, L1210 leukemia ip, survival T/C
test-details: NCI In Vivo Anticancer Drug Screen. Data for tumor model L1210 Leukemia (intraperitoneal) in CD2F1 (CDF1) mice
measurement-context: endpoint: median survival time; dose: 25.0 mg/kg/injection; schedule: Q01DX005 (ip); vehicle: saline with Tween-80; higher = longer survival
Inconclusive results and toxic doses are left out.

# compound, target-desc, T/C
data = [
    ("CSc1nc(NC2OC(CO)C(O)C(O)C2O)c(Br)c(=O)[nH]1 (stereo not drawn)", "CD2F1 mice, L1210 leukemia ip, survival T/C", "101 % of control"),
    ("O=c1[nH]c(=O)n(C2OC3COC2C3O)cc1F (stereo not drawn)", "CD2F1 mice, L1210 leukemia ip, survival T/C", "106 % of control"),
    ("Nc1c(-c2nccc(=O)[nH]2)ncn1C1OC(CO)C(O)C1O (stereo not drawn)", "CD2F1 mice, L1210 leukemia ip, survival T/C", "96 % of control"),
]
